The measurements presented in this section are drawn from paper PMC7307922.

measurement-target: hFFA3 (Homo sapiens)
Sequence (O14843 whole entry): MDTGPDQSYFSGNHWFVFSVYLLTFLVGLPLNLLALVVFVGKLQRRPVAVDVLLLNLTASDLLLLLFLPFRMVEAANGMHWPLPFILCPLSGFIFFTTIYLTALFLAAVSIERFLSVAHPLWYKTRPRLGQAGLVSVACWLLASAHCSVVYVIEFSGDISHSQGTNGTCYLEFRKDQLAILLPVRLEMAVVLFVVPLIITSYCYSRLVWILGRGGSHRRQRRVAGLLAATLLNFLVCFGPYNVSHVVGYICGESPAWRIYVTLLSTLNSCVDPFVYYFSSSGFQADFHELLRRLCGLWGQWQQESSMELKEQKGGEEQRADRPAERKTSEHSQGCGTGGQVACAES
assay-details: cell-based
condition: HEK293, read-out: cAMP Emax
Measured Emax of individual entries
parameter: Emax (%)

- compound: "CC1=C(C(=O)Nc2cc(Cl)ccc2Cl)C(CCn2cccn2)C2=C(CCCC2=O)N1 (centres unmarked) [Compound 40]"
  value-reported: 96
- compound: "CC1=C(C(=O)Nc2ccc(C)cc2)C(c2ccco2)C2=C(CCCC2=O)N1 (centres unmarked) [Compound 14]"
  value-reported: 100
- compound: "CC1=C(C(=O)Nc2ccccc2C)C(c2csc3ccccc23)C2=C(CCCC2=O)N1 (centres unmarked) [Compound 46]"
  value-reported: 95
- compound: "CC1=C(C(=O)Nc2ccccc2C)C(c2cccc(C(F)(F)F)c2)C2=C(CCCC2=O)N1 (centres unmarked) [Compound 8]"
  value-reported: 98
- compound: "CC1=C(C(=O)Nc2cc(Cl)ccc2Cl)C(c2cscn2)C2=C(CCCC2=O)N1 (centres unmarked) [Compound 49]"
  value-reported: 95
